Where do these numbers come from? They come from ChEMBL document CHEMBL1151774.

# Test system: Staphylococcus aureus
# ASSAY INFO: Antimicrobial activity against methicillin-susceptible Staphylococcus aureus after 16 to 18 hrs by agar dilution method
# Assay type: functional
Consider the following compounds and their measured MIC readings.
MEASURE NAME: MIC (µg/mL)

>  <SMILES STRING>
O=Cc1cccc(CN2CCN(c3ccc(N4C[C@H](Cn5ccnn5)OC4=O)cc3F)CC2)c1

>  <MEASURED NUMBER>
0.5

$$$$
>  <SMILES STRING>
Nc1cccc(CN2CCN(c3ccc(N4C[C@H](Cn5ccnn5)OC4=O)cc3F)CC2)c1

>  <MEASURED NUMBER>
0.25

$$$$
>  <SMILES STRING>
Cc1ccc(CN2CCN(c3ccc(N4C[C@H](Cn5ccnn5)OC4=O)cc3F)CC2)o1

>  <MEASURED NUMBER>
0.125

$$$$

----------
Consider the following compounds and their measured CL/F readings.
# ASSAY INFO: Clearance in Sprague-Dawley rat at 10 mg/kg, po
# Type: ADME, organism-based
# Design: dose 10 mg/kg, route oral
# EXPERIMENTAL PARAMETERS: in vivo

>  <SMILES STRING>
O=C1O[C@@H](Cn2ccnn2)CN1c1ccc(N2CCN(Cc3ccoc3)CC2)c(F)c1

>  <CL/F>
10.5 mL/min/kg

$$$$
>  <SMILES STRING>
O=C1O[C@@H](Cn2ccnn2)CN1c1ccc(N2CCN(Cc3cccc([N+](=O)[O-])c3)CC2)c(F)c1

>  <CL/F>
11.7 mL/min/kg

$$$$
>  <SMILES STRING>
Nc1ccc(CN2CCN(c3ccc(N4C[C@H](Cn5ccnn5)OC4=O)cc3F)CC2)cc1

>  <CL/F>
54.4 mL/min/kg

$$$$

----------
Consider the following compounds and their measured half-life readings.
# ASSAY INFO: Elimination half life in Sprague-Dawley rat at 50 mg/kg, po
# Format: ADME, organism-based
# Parameters: dose 50 mg/kg, route oral
# EXPERIMENTAL PARAMETERS: in vivo, read-out: beta t1/2 (converted)

>  <SMILES STRING>
O=C1O[C@@H](Cn2ccnn2)CN1c1ccc(N2CCN(Cc3ccc([N+](=O)[O-])o3)CC2)c(F)c1

>  <half-life, h>
1.66

$$$$
>  <SMILES STRING>
Nc1ccc(CN2CCN(c3ccc(N4C[C@H](Cn5ccnn5)OC4=O)cc3F)CC2)cc1

>  <half-life, h>
4.67

$$$$
>  <SMILES STRING>
O=C1O[C@@H](Cn2ccnn2)CN1c1ccc(N2CCN(Cc3ccoc3)CC2)c(F)c1

>  <half-life, h>
8.6

$$$$
>  <SMILES STRING>
O=C1O[C@@H](Cn2ccnn2)CN1c1ccc(N2CCN(Cc3cccc([N+](=O)[O-])c3)CC2)c(F)c1

>  <half-life, h>
5.34

$$$$

----------
# ASSAY INFO: Tmax in Sprague-Dawley rat at 10 mg/kg, po
# Format: ADME, organism-based
# Set-up: dose 10 mg/kg, route oral
# EXPERIMENTAL PARAMETERS: in vivo
Consider the following compounds and their measured Tmax readings.

>  <SMILES STRING>
O=C1O[C@@H](Cn2ccnn2)CN1c1ccc(N2CCN(Cc3ccc([N+](=O)[O-])o3)CC2)c(F)c1

>  <Tmax / min>
15

$$$$
>  <SMILES STRING>
O=C1O[C@@H](Cn2ccnn2)CN1c1ccc(N2CCN(Cc3cccc([N+](=O)[O-])c3)CC2)c(F)c1

>  <Tmax / min>
84

$$$$
>  <SMILES STRING>
Nc1ccc(CN2CCN(c3ccc(N4C[C@H](Cn5ccnn5)OC4=O)cc3F)CC2)cc1

>  <Tmax / min>
45

$$$$
>  <SMILES STRING>
O=C1O[C@@H](Cn2ccnn2)CN1c1ccc(N2CCN(Cc3ccoc3)CC2)c(F)c1

>  <Tmax / min>
52.8

$$$$
